Test: photoluminescence quantum yield (fraction); solvent given as SMILES
Details: in ClC(Cl)Cl
Note: every record was labeled by where its photoluminescence quantum yield sits among band A: < 0.09; band B: ≥ 0.09 and < 0.6; band C: ≥ 0.6

- MOLECULE: "C(=C\\c1ccc(N(c2ccccc2)c2ccccc2)cc1)/c1ccc(-c2nc(-c3ccc(/C=C/c4ccc(N(c5ccccc5)c5ccccc5)cc4)cc3)nc(-c3ccc(/C=C/c4ccc(N(c5ccccc5)c5ccccc5)cc4)cc3)n2)cc1"
  CATEGORY LABEL: "band B"
- MOLECULE: "F[B-]1(F)OC(c2ccc(C(F)(F)F)cc2)=Cc2c3ccccc3cc[n+]21"
  CATEGORY LABEL: "band A"
- MOLECULE: "COc1ccc(N(c2ccc(OC)cc2)c2ccc(-c3ccc(-c4ccc(-c5ccc(-c6ccc(N(c7ccc(OC)cc7)c7ccc(OC)cc7)cc6)s5)c5nsnc45)s3)cc2)cc1"
  CATEGORY LABEL: "band B"
- MOLECULE: "CN(C)c1ccc(-c2ccc(-c3nc(C#N)c(C#N)n3C)cc2)cc1"
  CATEGORY LABEL: "band C"
- MOLECULE: "Cc1c2c(c(C)c3ccccc13)-c1c-2ccc2nc3ccccc3nc12"
  CATEGORY LABEL: "band A"
- MOLECULE: "CCCCCCCCCCOc1cc(OCCCCCCCCCC)cc(C2=C3C(/C=C/c4ccc(OC)cc4)=CC(/C=C/c4ccc(OC)cc4)=[N+]3[B-](F)(F)n3c(/C=C/c4ccc(OC)cc4)cc(C=Cc4ccc(OC)cc4)c32)c1"
  CATEGORY LABEL: "band B"
- MOLECULE: "CCCCCCCCC1(CCCCCCCC)c2cc(-c3ccc(C#N)cc3)ccc2-c2ccc(-c3ccc(C#N)cc3)cc21"
  CATEGORY LABEL: "band C"
- MOLECULE: "CCCCCCN1C(=O)c2cc(-c3ccc(-n4c5ccccc5c5ccccc54)cc3)c(-c3ccc(-n4c5ccccc5c5ccccc54)cc3)cc2C1=O"
  CATEGORY LABEL: "band C"
- MOLECULE: "COc1ccc(-c2cc3ccc4cc(-c5ccc(OC)cc5)cc5ccc(c2)c3c45)cc1"
  CATEGORY LABEL: "band A"
- MOLECULE: "CCCCCCCCN1c2ccccc2Sc2cc(/C=C/c3ccc(N(c4ccc(/C=C/c5ccc6c(c5)Sc5ccccc5N6CCCCCCCC)cc4)c4ccc(/C=C/c5ccc(/C=C/c6ccc(N(c7ccc(/C=C/c8ccc(N(c9ccccc9)c9ccccc9)cc8)cc7)c7ccc(/C=C/c8ccc(N(c9ccccc9)c9ccccc9)cc8)cc7)cc6)c6nsnc56)cc4)cc3)ccc21"
  CATEGORY LABEL: "band A"
- MOLECULE: "Cc1cc(C)c(C2=C3C=CC(c4ccccc4O)=[N+]3[B-]3(c4ccccc4)Oc4ccccc4-c4ccc2n43)c(C)c1 (stereo not drawn)"
  CATEGORY LABEL: "band C"

* * *

Quick reference for photoluminescence quantum yield among some molecules
Assay: photoluminescence quantum yield (fraction); solvent given as SMILES
Conditions: in ClC(Cl)Cl
VALUE KIND: photoluminescence quantum yield

- MOLECULE: "CCOC(=O)C1(O)c2cc3ccc4cccc5ccc(c2C(=O)N1C(C)(C)C)c3c45 (centres undefined)"
  REPORTED VALUE: 0.152
- MOLECULE: "CC(C)(C)c1ccc(Oc2cc3c4c(cc(Oc5ccc(C(C)(C)C)cc5)c5c6c(Oc7ccc(C(C)(C)C)cc7)cc7c8c(cc(Oc9ccc(C(C)(C)C)cc9)c(c2c45)c86)C(=O)N(Cc2ccccc2)C7=O)C(=O)N(Cc2ccccc2)C3=O)cc1"
  REPORTED VALUE: 0.73
- MOLECULE: "CN1CCc2cc(C3=Cc4cccc[n+]4[B-](F)(F)O3)ccc21"
  REPORTED VALUE: 0.639
- MOLECULE: "CN(C)c1ccc(/C=C/C=N/N=C/c2ccc3ccc4cccc5ccc2c3c45)cc1"
  REPORTED VALUE: 0.007
